Values from patent US5198564A

For each of the molecules below, state its T/C (%) of ST (ratio of survival time of test and control animals).
test system: S180 sarcoma cells; assay: Effect in prolonging the life of mouse with cancer (S180), Test Example 2; format: in vivo, DBA/2 mice; conditions: 10 mg/kg, i.p. once, 30 days observation

For every record below, what is its T/C (%) of ST (ratio of survival time of test and control animals)?
1. NCc1ccccc1Br.NCc1ccccc1Br.[I][Pt][I]
2. NCc1ccc(Cl)cc1.NCc1ccc(Cl)cc1.[Cl][Pt][Cl] [drawing 224]

> 180%
> 140%

###

details: water
Mark each entry 1 if its Solubility sits below 900 µg/mL, and 0 for all others.

compound=NCc1ccc(O)cc1.NCc1ccc(O)cc1.[Cl][Pt][Cl] answer_label=0
compound="NCc1ccc(CO)o1.NCc1ccc(CO)o1.[Cl][Pt][Cl] [drawing 216]" answer_label=0
compound="NCc1ccc(Cl)cc1.NCc1ccc(Cl)cc1.[Cl][Pt][Cl] [drawing 204]" answer_label=1

I'd appreciate it if you could check whether NCc1ccccc1CN.[Cl][Pt][Cl] has Solubility smaller than 900 µg/mL.
1

I'd appreciate it if you could check whether NCc1ccco1.NCc1ccco1.[Cl][Pt][Cl] [drawing 214] has Solubility smaller than 900 µg/mL.
1

I'd appreciate it if you could check whether NCc1cc(C(=O)O)c(C(=O)O)cc1CN.[Cl][Pt][Cl] has Solubility smaller than 900 µg/mL.
0

I'd appreciate it if you could check whether N[C@@H]1COCO[C@@H]1c1ccccc1.N[C@@H]1COCO[C@@H]1c1ccccc1.[I][Pt][I] has Solubility smaller than 900 µg/mL.
1

I'd appreciate it if you could check whether NCc1ccc(C(=O)O)cc1.NCc1ccc(C(=O)O)cc1.[Cl][Pt][Cl] [drawing 212] has Solubility smaller than 900 µg/mL.
0

I'd appreciate it if you could check whether NCc1ccc(C(=O)O)cc1.NCc1ccc(C(=O)O)cc1.[I][Pt][I] [drawing 211] has Solubility smaller than 900 µg/mL.
0

I'd appreciate it if you could check whether NCc1ccccc1CN.[I][Pt][I] has Solubility smaller than 900 µg/mL.
1

I'd appreciate it if you could check whether NCc1ccc(Cl)c(O)c1.NCc1ccc(Cl)c(O)c1.[I][Pt][I] [drawing 209] has Solubility smaller than 900 µg/mL.
1

I'd appreciate it if you could check whether NCc1ccco1.NCc1ccco1.[I][Pt][I] [drawing 213] has Solubility smaller than 900 µg/mL.
1

I'd appreciate it if you could check whether N.N.O=C1[O][Pt][O]C(=O)C12CCC2 [reference compound] has Solubility smaller than 900 µg/mL.
0
